# target.entity: T1, IL-23 (mouse, p19/p40 heterodimer) (Mus musculus, UniProt Q9EQ14;P43432 SEQ:22-196,SEQ:23-335)
# T1 sequence 1: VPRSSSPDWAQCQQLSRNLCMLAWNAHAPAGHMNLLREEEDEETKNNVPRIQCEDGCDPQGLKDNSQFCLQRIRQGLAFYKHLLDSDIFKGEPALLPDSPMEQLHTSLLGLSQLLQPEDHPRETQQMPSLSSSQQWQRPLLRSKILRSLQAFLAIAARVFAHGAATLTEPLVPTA
# T1 sequence 2: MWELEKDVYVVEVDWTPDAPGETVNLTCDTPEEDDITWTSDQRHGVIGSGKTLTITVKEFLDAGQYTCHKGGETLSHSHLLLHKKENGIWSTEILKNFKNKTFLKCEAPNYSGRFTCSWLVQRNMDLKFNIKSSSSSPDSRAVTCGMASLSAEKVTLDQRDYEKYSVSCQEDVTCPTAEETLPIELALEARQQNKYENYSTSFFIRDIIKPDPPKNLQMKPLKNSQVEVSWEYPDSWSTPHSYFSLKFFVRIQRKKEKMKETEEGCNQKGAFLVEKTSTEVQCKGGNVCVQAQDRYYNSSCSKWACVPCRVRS
# assay.info: filter; 1X PBS, 0.1 mg/mL BSA, 30 min RT; inactive in TransAM cell assay
# measurement.setup: tags: isolated in-house; label: 32P
experimental.endpoint: Kd

Item GGAGCGCACUCAGCCACCGGCUUAAUAUCCAAUAGGAACGUUCGCUCU (ssRNA, 2'-F all C and U (rRfY)) [ARC1918 (ARC1632 minimer)] : provide Kd
1 nM
